FYI, the data here is from PubChem BioAssay (NCI).

- Tested on: T-47D breast
- protocol.details: NCI-60 one-dose screen, 48 h (100 = growth as untreated, 0 = no growth, -100 = all killed)
- setup.conditions: 10 µM unless noted
Compounds without any hit were thinned out: in the full panel of roughly 83,000, 20% have a hit. Calls of active or inactive are those of the source. How the source made its calls: active means growth percent below 10; inactive means the rest.
Items are presented alongside their recorded growth.

Check the records and state growth for N/C(=N\C(N)=N\c1nc2ccccc2s1)c1ccncc1
65.4% (inactive)

Check the records and state growth for CCNc1nc(S(=O)(=O)CC)nc2ccccc12
92.4% (inactive)

Check the records and state growth for CN1C(=O)N(C)C2C1NN=c1s/c(=C\c3cccnc3)c(=O)n12 (centres undefined)
91.2% (inactive)

Check the records and state growth for O=C(c1ccccc1)c1c(/C=C/c2ccccc2)c2ccccc2[nH]c1=O
93.5% (inactive)

Check the records and state growth for CC(C)(C)n1cc(-c2ccnc(NCCCNS(=O)(=O)c3cccc(F)c3)c2)c(-c2cccc(O)c2)n1
35.7% (inactive)

Check the records and state growth for O=C1CS/C(=N\Nc2cc(=O)[nH]c3ccccc23)N1c1ccccc1
89.6% (inactive)
